experimental-system: hHGS 1-390-6 × HIS protein (Homo sapiens)
Sequence (O14964 1-390): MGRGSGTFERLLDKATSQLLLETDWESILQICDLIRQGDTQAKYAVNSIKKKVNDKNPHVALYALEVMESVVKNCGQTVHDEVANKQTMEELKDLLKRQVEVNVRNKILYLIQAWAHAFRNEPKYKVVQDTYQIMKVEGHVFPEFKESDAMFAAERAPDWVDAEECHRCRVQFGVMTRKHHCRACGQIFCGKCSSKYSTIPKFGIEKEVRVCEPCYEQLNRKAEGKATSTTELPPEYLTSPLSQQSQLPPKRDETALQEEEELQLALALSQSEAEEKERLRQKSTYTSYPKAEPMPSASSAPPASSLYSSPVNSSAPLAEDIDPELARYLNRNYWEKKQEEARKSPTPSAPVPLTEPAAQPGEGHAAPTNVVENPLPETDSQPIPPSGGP
assay-explanation: biochemical
test-readout: Kd (µM)
Numbers only, in µM.

Q: Entry under review: CCCC(=O)OC[C@@H](OC(=O)CCC)[C@@H](OC(=O)CCC)[C@H](Cn1c2nc(=O)[nH]c(=O)c-2nc2cc(C)c(C)cc21)OC(=O)CCC [RTB, riboflavin tetrabutyrate] . Reported Kd?
Ans: 4.82

* * *

assay-explanation: in vitro
condition-notes: human, Calu-3 cells, cell viability, Figure S7G, peptide concentration 100000
Ends that are not written are not given here.
test-readout: viability at 24 h
Express your answer as a number followed by its unit.

Q: Entry under review: GRKKRRQRRRPPQDYKDDDDK [FLAG] . Reported viability at 24 h?
Ans: 94.2%

* * *

Test system: MHV
assay-explanation: microbe, parasite or virus in culture
Assay type: cell-based, mouse hepatitis virus (MHV)
condition-notes: Murine coronavirus, 24 h, read-out: EC50 (IFA)
test-readout: EC50 (µM)
One number for each entry, in µM.

I have 2 compounds here; please give me EC50 for each one.
1. CCC(CC)COC(=O)[C@H](C)N[P@](=O)(OC[C@H]1O[C@@](C#N)(c2ccc3c(N)ncnn23)[C@H](O)[C@@H]1O)Oc1ccccc1 [RDV, remdesivir]
2. CCCC(=O)OC[C@@H](OC(=O)CCC)[C@@H](OC(=O)CCC)[C@H](Cn1c2nc(=O)[nH]c(=O)c-2nc2cc(C)c(C)cc21)OC(=O)CCC [RTB, riboflavin tetrabutyrate]

Ans:
1.29
11.2

* * *

assay-explanation: in vitro
condition-notes: Vero E6 cells, cell viability, Figure S7F, peptide concentration 40000
Ends that are not written are not given here.
test-readout: viability at 24 h (%)
Numbers only, in %.

Q: Entry under review: GRKKRRQRRRPPQESELVIGAVILR [M146] . Reported viability at 24 h?
Ans: 93.1

* * *

assay-explanation: in vitro
condition-notes: human, Calu-3 cells, cell viability, Figure S7G, peptide concentration 200000
Ends that are not written are not given here.
test-readout: viability at 24 h

Q: Entry under review: GRKKRRQRRRPPQESELVIGAVILR [M146] . Reported viability at 24 h?
Ans: 83%

* * *

For each of the sequences below, state its viability at 24 h.
assay-explanation: in vitro
condition-notes: Vero E6 cells, cell viability, Figure S7F, peptide concentration 800000
Ends that are not written are not given here.
Numbers only, in %.

GRKKRRQRRRPPQDYKDDDDK [FLAG] :: 101

# input for lookup
Q: Entry under review: GRKKRRQRRRPPQESELVIGAVILR [M146] . Reported viability at 24 h?
Ans: 12

* * *

assay-explanation: in vitro
condition-notes: mouse, 17Cl-1 cells, cell viability, Figure S7E, peptide concentration 10000
Ends that are not written are not given here.
test-readout: viability at 24 h (%)
Answers are plain numbers, in %.

GRKKRRQRRRPPQESELVIGAVILR [M146] :: 107

Q: Entry under review: GRKKRRQRRRPPQDYKDDDDK [FLAG] . Reported viability at 24 h?
Ans: 97.5

* * *

assay-explanation: in vitro
condition-notes: Vero E6 cells, cell viability, Figure S7F, peptide concentration 4000
Ends that are not written are not given here.
test-readout: viability at 24 h (%)
Give bare numbers, in %.

Q: Entry under review: GRKKRRQRRRPPQDYKDDDDK [FLAG] . Reported viability at 24 h?
Ans: 102

* * *

experimental-system: hHgs 1-390 protein (Homo sapiens, UniProt O14964)
assay-explanation: biochemical
pIC50: −log10 of the molar value.
Values of pIC50 greater than or equal to 6 map to t; values below map to f.

CCOc1ccc2nc3cc(N)ccc3c(N)c2c1 [Ethacridine lactate, ethacridine lactate] :: f
CCCC(=O)OC[C@@H](OC(=O)CCC)[C@@H](OC(=O)CCC)[C@H](Cn1c2nc(=O)[nH]c(=O)c-2nc2cc(C)c(C)cc21)OC(=O)CCC [RTB, riboflavin tetrabutyrate] :: t
COc1cc(OC)c2ccc(=O)oc2c1 [Citropten, citropten] :: f

Please look at the following compound next.
Q: Textbook exercise: given the entry COc1ccc(N)cn1 [5-amino-2-methoxypyridine] , state whether its pIC50 is greater than or equal to 6.
Ans: f

* * *

assay-explanation: in vitro
condition-notes: Vero E6 cells, cell viability, Figure S7F, peptide concentration 200000
Ends that are not written are not given here.
test-readout: viability at 24 h
Express your answer as a number followed by its unit.

Q: Entry under review: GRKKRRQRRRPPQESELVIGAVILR [M146] . Reported viability at 24 h?
Ans: 70.8%

* * *

assay-explanation: in vitro
condition-notes: mouse, 17Cl-1 cells, cell viability, Figure S7E, peptide concentration 80000
Ends that are not written are not given here.
For each of the sequences below, state its viability at 24 h.
One number for each entry, in %.

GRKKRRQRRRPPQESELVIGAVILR [M146] :: 71.4

# input for lookup
Q: Entry under review: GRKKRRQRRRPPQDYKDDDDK [FLAG] . Reported viability at 24 h?
Ans: 84.5

* * *

For each of the sequences below, state its viability at 24 h.
assay-explanation: in vitro
condition-notes: human, Calu-3 cells, cell viability, Figure S7G, peptide concentration 80000
Ends that are not written are not given here.
Answers are plain numbers, in %.

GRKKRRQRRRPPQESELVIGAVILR [M146] :: 92.6

# input for lookup
Q: Entry under review: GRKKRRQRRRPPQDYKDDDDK [FLAG] . Reported viability at 24 h?
Ans: 94.5

* * *

For each of the sequences below, state its viability at 24 h.
assay-explanation: in vitro
condition-notes: mouse, 17Cl-1 cells, cell viability, Figure S7E, peptide concentration 8000
Ends that are not written are not given here.
Give bare numbers, in %.

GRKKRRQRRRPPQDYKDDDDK [FLAG] :: 98

# input for lookup
Q: Entry under review: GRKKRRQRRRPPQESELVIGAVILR [M146] . Reported viability at 24 h?
Ans: 95.8

* * *

For each of the sequences below, state its viability at 24 h.
assay-explanation: in vitro
condition-notes: human, Calu-3 cells, cell viability, Figure S7G, peptide concentration 20000
Ends that are not written are not given here.
Numbers only, in %.

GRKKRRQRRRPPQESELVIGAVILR [M146] :: 94.8

# input for lookup
Q: Entry under review: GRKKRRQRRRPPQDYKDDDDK [FLAG] . Reported viability at 24 h?
Ans: 89

* * *

For each of the compounds below, state its pEC50.
Tested on: MHV
assay-explanation: microbe, parasite or virus in culture
condition-notes: Murine coronavirus, 24 h, read-out: EC50, rescue of coronavirus-induced cytopathic effects
Numbers only, as −log10 of the molar value.

CCCC(=O)OC[C@@H](OC(=O)CCC)[C@@H](OC(=O)CCC)[C@H](Cn1c2nc(=O)[nH]c(=O)c-2nc2cc(C)c(C)cc21)OC(=O)CCC [RTB, riboflavin tetrabutyrate] :: 5.46

# input for lookup
Q: Entry under review: `CCC(CC)COC(=O)[C@H](C)N[P@](=O)(OC[C@H]1O[C@@](C#N)(c2ccc3c(N)ncnn23)[C@H](O)[C@@H]1O)Oc1ccccc1` . Reported pEC50?
Ans: 6.16

* * *

assay-explanation: in vitro
condition-notes: mouse, 17Cl-1 cells, cell viability, Figure S7E, peptide concentration 40000
Ends that are not written are not given here.
test-readout: viability at 24 h (%)
Numbers only, in %.

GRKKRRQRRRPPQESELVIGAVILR [M146] :: 91

Q: Entry under review: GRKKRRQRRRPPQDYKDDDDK [FLAG] . Reported viability at 24 h?
Ans: 78.8

* * *

assay-explanation: in vitro
condition-notes: Vero E6 cells, cell viability, Figure S7F, peptide concentration 8000
Ends that are not written are not given here.
test-readout: viability at 24 h (%)
Answers are plain numbers, in %.

Q: Entry under review: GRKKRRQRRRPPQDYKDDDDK [FLAG] . Reported viability at 24 h?
Ans: 102

* * *

assay-explanation: in vitro
condition-notes: Vero E6 cells, cell viability, Figure S7F, peptide concentration 1600000
Ends that are not written are not given here.
test-readout: viability at 24 h (%)
Answers are plain numbers, in %.

Q: Entry under review: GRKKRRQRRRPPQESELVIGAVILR [M146] . Reported viability at 24 h?
Ans: 14.5

* * *

assay-explanation: in vitro
condition-notes: Vero E6 cells, cell viability, Figure S7F, peptide concentration 6000
Ends that are not written are not given here.
test-readout: viability at 24 h
Express your answer as a number followed by its unit.

Q: Entry under review: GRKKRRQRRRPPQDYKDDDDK [FLAG] . Reported viability at 24 h?
Ans: 106%

* * *

assay-explanation: in vitro
condition-notes: human, Calu-3 cells, cell viability, Figure S7G, peptide concentration 40000
Ends that are not written are not given here.
test-readout: viability at 24 h (%)
Numbers only, in %.

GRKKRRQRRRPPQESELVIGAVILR [M146] :: 93.7

# input for lookup
Q: Entry under review: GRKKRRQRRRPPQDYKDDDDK [FLAG] . Reported viability at 24 h?
Ans: 93.4
